FYI, the data here is from ChEMBL document CHEMBL4689842.

Hi there, I'd appreciate the recorded Population Mitotic Cells (%) for every entry that follows.
Test system: Fibroblast
Assay Info: Multiplex assay against human fibroblast
Type: toxicity, cell-based
Condition: 48 h, 1 µM, compound concentration 1 uM, replicate 2
Numbers only, in %.

Consider the reported Population Mitotic Cells (%) for these compounds:
- Compound: "Cl.N#Cc1ccc2[nH]cc(CCCCN3CCN(c4ccc5oc(C(N)=O)cc5c4)CC3)c2c1 [VILAZODONE HYDROCHLORIDE]"
  Tested On: "Fibroblast"
  Population Mitotic Cells (%): 66
- Compound: "OC1(c2ccc(Cl)cc2)CCN(Cc2c[nH]c3ccccc23)CC1"
  Tested On: "Fibroblast"
  Population Mitotic Cells (%): 50

Let us move to another entry and its Population Mitotic Cells (%).
I have this compound here, C[C@@H](NCCCc1cccc(C(F)(F)F)c1)c1cccc2ccccc12.Cl [CINACALCET HYDROCHLORIDE] , and I need its recorded Population Mitotic Cells (%).
33
